- EXPERIMENTAL_TARGET: human P2X3 receptor (Homo sapiens (Human))
- Sequence (P56373 whole entry): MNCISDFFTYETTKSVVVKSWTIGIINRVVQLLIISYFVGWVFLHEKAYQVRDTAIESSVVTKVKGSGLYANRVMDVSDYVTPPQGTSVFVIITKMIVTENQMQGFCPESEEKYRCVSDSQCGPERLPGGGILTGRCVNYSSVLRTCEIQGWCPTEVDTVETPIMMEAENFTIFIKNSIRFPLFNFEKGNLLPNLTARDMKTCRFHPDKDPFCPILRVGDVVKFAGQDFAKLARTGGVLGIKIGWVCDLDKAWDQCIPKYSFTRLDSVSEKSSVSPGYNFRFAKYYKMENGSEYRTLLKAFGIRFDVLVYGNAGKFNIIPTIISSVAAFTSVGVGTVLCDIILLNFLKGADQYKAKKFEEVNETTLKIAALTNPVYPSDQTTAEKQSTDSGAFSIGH
- ASSAY_METHOD_TEXT: Evaluation of human P2X3 receptor inhibitory activity (Test Example 1)
- APPLIED_CONDITIONS: C6BU-1 cell transfected with human P2X3 receptor gene, FLIPR 384
READOUT_KIND: pIC50
One number for each entry, as −log10 of the molar value.

Solved cases (2 shown):
> print(dat)
                                   compound  readout.kind  recorded.value
1  CC(C)(Cn1c(=O)[nH]/c(=N\c2ccc(Oc3ccnc(C#N)c3)cc2)n(Cc2ccc(Cl)cc2)c1=O)C(=O)O [Compound R-108]         pIC50            8.10
2  COC(=O)C(C)(C)Cn1c(=O)[nH]/c(=N\c2ccc(Oc3cccc(F)n3)cc2)n(Cc2ccc(Cl)cc2)c1=O [Compound I-008]         pIC50            8.15

Answer for every listed entry: what is its pIC50? The entries follow.
1. Cc1ccc(Cn2c(=O)n(CC(C)(C)C(=O)O)c(=O)[nH]/c2=N\c2ccc(Oc3ncccc3Cl)cc2)cc1 [Compound I-118]
2. Cc1cc(/N=c2\[nH]c(=O)n(C[C@H](C)C(=O)O)c(=O)n2Cc2ccc(Cl)cc2)ccc1N1CCCCC1 [Compound R-142]
3. C[C@@H](Cn1c(=O)[nH]/c(=N\c2ccc(Oc3cnccn3)cc2)n(Cc2ccc(Cl)cc2)c1=O)C(=O)O [Compound R-019]
4. CC(C)(Cn1c(=O)[nH]/c(=N\c2ccc(Oc3cncc(F)c3)c(F)c2)n(Cc2ccc(Cl)cc2)c1=O)C(=O)O [Compound R-121]
5. COC(=O)Cn1c(=O)[nH]/c(=N\c2ccc(Oc3ccccn3)cc2)n(Cc2ccc(Cl)cc2)c1=O [Compound R-238]

Ans.
1. 8.05
2. 7.16
3. 8.22
4. 8.30
5. 8.15

###

- EXPERIMENTAL_TARGET: UniProtKB P56373
- ASSAY_METHOD_TEXT: Evaluation of human P2X3 receptor inhibitory activity (Test Example 1)
- APPLIED_CONDITIONS: C6BU-1 cell transfected with human P2X3 receptor gene, FLIPR 384
READOUT_KIND: pIC50
Numbers only, as −log10 of the molar value.

Below: 5 compounds and their reported pIC50.
> print(dat)
                                   compound  readout.kind  recorded.value
1  C[C@@H](Cn1c(=O)[nH]/c(=N\c2ccc(Oc3cccnn3)c(F)c2)n(Cc2ccc(Cl)cc2)c1=O)C(=O)O [Compound R-037]         pIC50            8.15
2  Cc1nccnc1Oc1ccc(/N=c2\[nH]c(=O)n(C[C@H](C)C(=O)O)c(=O)n2Cc2ccc(Cl)cc2)cc1 [Compound R-237]         pIC50            8.05
3  COC(=O)C[C@@H](C)n1c(=O)[nH]/c(=N\c2ccc(Oc3ncccc3F)cc2)n(Cc2ccc(C)cc2)c1=O [Compound I-188]         pIC50            8.15
4  CCc1[nH]c2ccc(/N=c3\[nH]c(=O)n(C[C@H](C)C(=O)OC)c(=O)n3Cc3ccc(Cl)cc3)cc2c1C [Compound R-068]         pIC50            7.40
5  Cc1ccc(Cn2c(=O)n([C@@H](C)[C@@H](C)C(=O)O)c(=O)[nH]/c2=N\c2ccc(Oc3ccc(C)cn3)cc2)cc1 [Compound I-113]         pIC50            8.30

Qu. Return the recorded pIC50 value; entry: COC(=O)C(C)(C)Cn1c(=O)[nH]/c(=N\c2ccc(Oc3cnc(C(F)(F)F)cn3)cc2)n(Cc2ccc(Cl)cc2)c1=O [Compound R-036]
Ans. 7.96
